Assay: chemical genetic growth profiling, strain panel (AID 1159580);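 note: tested at 20 µM; growth read once vehicle control cultures reached saturation at 30 °C; 1 = growth at the plate median or of vehicle wells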
Settings: S. cerevisiae deletion strains, growth OD, locus YBR009C, strain hhf1
Screen size: about 5,500 compounds; about 2,000 (36%) were called active. Another 18% or so got no clear call; they are omitted. Cut-off read from the data, not from the text of the source: active = normalized growth mostly below about 0.91 (no sharp cut-off); inconclusive = no clear call, values can overlap the other calls; inactive = mostly above about 0.92. This is one part of the list.
Outcome field: choose from active, inactive

Prompt: Lab log entry: Nc1ccn(C2O[C@H](CO)[C@@H](O)[C@H]2O)c(=O)n1 (stereo partly drawn) — outcome as called in the assay?
Completion: inactive

Prompt: Item: COC(=O)CCCOc1ccc(Cl)cc1Cl
Completion: inactive

Prompt: # repeat for O=C(Nc1ccccc1)Nc1ccccc1
Completion: inactive

Prompt: Repeat for the following compound: CSc1ccc2c(c1)N(CCC1CCCCN1C)c1ccccc1S2 (stereo not drawn)
Completion: active

Prompt: Moving on to CCCCCC1C(=O)CCC1CC(=O)O (stereo not drawn)
Completion: inactive

Prompt: Try this compound too: O=c1cc(-c2cc(O)c(O)c(O)c2)oc2cc(O)cc(O)c12
Completion: inactive

Prompt: Now consider CC(CN(C)C)CN1c2ccccc2CCc2ccccc21 (stereo not drawn) and answer again.
Completion: inactive

Prompt: Query O=c1cc(-c2ccccc2)oc2cc(O)c(O)cc12 next
Completion: active

Prompt: Entry Cc1cc(=O)oc2c(O)c(O)ccc12 please
Completion: inactive

Prompt: Then what about the compound CCCCCC1C(=O)CCC1CC(=O)OC (stereo not drawn) ?
Completion: inactive

Prompt: Also O=C(O)CCCOc1ccc(Cl)cc1Cl , if possible.
Completion: inactive

Prompt: Next: O=c1cc(-c2ccc(O)cc2)oc2cc(O)ccc12
Completion: inactive

Prompt: Quick one: O=c1cc(-c2ccc(O)cc2)oc2cc(O)cc(O)c12
Completion: inactive

---

Test: chemical genetic growth profiling, strain panel (AID 1159580)
Details: S. cerevisiae deletion strains, growth OD, locus YLR258W, strain gsy2, hits give low values
Screen size: about 5,500 compounds; about 2,000 (36%) were called active. Roughly 18% stayed inconclusive and do not appear here. Some of the results follow.
Output y for records whose normalized growth is lower than 1, n for records at or above 1.

Prompt: Identify whether the molecule CN(C)CCOC(=O)COc1ccc(Cl)cc1 records normalized growth below 1.
Completion: y

Prompt: Would you mind doing CN(C)CCC(c1ccc(Br)cc1)c1ccccn1 (stereo not drawn) as well?
Completion: y

Prompt: Also COC(=O)CCCOc1ccc(Cl)cc1Cl , if possible.
Completion: y

Prompt: For N[C@H](Cc1ccccc1)C(=O)O then?
Completion: n

Prompt: And the next one, N[C@H](Cc1cc(I)c(Oc2ccc(O)c(I)c2)c(I)c1)C(=O)O ?
Completion: y

Prompt: Please answer likewise for CCN(CC)C(C)CN1c2ccccc2Sc2ccccc21 (stereo not drawn)
Completion: y

---

Assay: chemical genetic growth profiling, strain panel (AID 1159580)
Conditions: S. cerevisiae strains, growth OD, strain wild type, hits give low values
The campaign covered roughly 5,500 compounds. About 2,000 (36%) were called active. Not shown: some 18% with an inconclusive outcome. The list shows a part of the results.
value-type: normalized growth
Just the number, please.

Prompt: Form field: reported normalized growth of C=C[C@H]1CN2CC[C@H]1C[C@@H]2[C@H](O)c1ccnc2ccccc12
Completion: 1

Prompt: Then this compound: CC(CN1c2ccccc2Sc2cccnc21)N(C)C (stereo unspecified)
Completion: 1.01

Prompt: What do you get for CNCCCN1c2ccccc2CCc2ccccc21 ?
Completion: 1.01

Prompt: And for CCC(=O)c1ccc2c(c1)N(CC(C)N(C)C)c1ccccc1S2 (stereo unspecified) ?
Completion: 0.991

Prompt: Would you mind doing CCOC(=O)[C@H](CCc1ccccc1)N[C@@H](C)C(=O)N1Cc2ccccc2C[C@H]1C(=O)O as well?
Completion: 1.01

Prompt: Check CCN(CC)C(C)CN1c2ccccc2Sc2ccccc21 (stereo unspecified) too.
Completion: 1

---

Test: chemical genetic growth profiling, strain panel (AID 1159580)
Details: S. cerevisiae deletion strains, growth OD, locus YOR119C, strain RIO1
Screen size: about 5,500 compounds; about 2,000 (36%) were called active. Not shown: some 18% with an inconclusive outcome. No stated cut-off is given here; in the data, active means normalized growth mostly below about 0.91 (no sharp cut-off); inconclusive means no clear call, values can overlap the other calls; inactive means mostly above about 0.92. Some of the results follow.
Classes to choose from: active, inactive

Prompt: Test call, this compound: CS(=O)(=O)c1sc(C(=O)Sc2ccc(Cl)cc2)c2c1C=CCC2
Completion: active

Prompt: What do we get for Cc1ccc(N2C(=O)CSC2c2ccc(Cl)c(Cl)c2)cc1Cl (stereo unspecified) ?
Completion: inactive

Prompt: Proceed to O=C1CSC(c2ccc(C(F)(F)F)cc2)N1c1ccc(C(F)(F)F)cc1 (stereo unspecified)
Completion: inactive

Prompt: One more compound: N#Cc1ccc(NC(=O)Nc2cccc3ccccc23)cc1
Completion: inactive

Prompt: Entry to check: COc1ccc(CC2CCC(=NOC(=O)c3ccc(C(C)(C)C)cc3)CC2)cc1 (stereo unspecified)
Completion: inactive

Prompt: Can you handle CS(=O)(=O)/C(C#N)=C/c1ccccc1OCc1c(Cl)cccc1Cl next?
Completion: inactive

---

Test: chemical genetic growth profiling, strain panel (AID 1159580);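 note: tested at 20 µM; growth read once vehicle control cultures reached saturation at 30 °C; 1 = growth at the plate median or of vehicle wells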
Conditions: S. cerevisiae deletion strains, growth OD, locus YER110C, hits give low values
Hit rate of the full screen: of about 5,500 compounds, about 2,000 (36%) were called active. About 18% were inconclusive and are not listed. Some of the results follow.
value-type: normalized growth
Hey, just send me the number, nothing else.

Prompt: Fill blank: measured normalized growth of the compound COc1c2ccccc2nc2occc12 is ____.
Completion: 0.937

Prompt: And the next one, COc1c2ccoc2nc2c(OC)c(OCC(O)C(C)(C)O)ccc12 (stereo unspecified) ?
Completion: 0.983

Prompt: Queued: CN(C)CCC(c1ccc(Br)cc1)c1ccccn1 (stereo unspecified)
Completion: 0.985

Prompt: Also O=C(O)Cc1cc(I)c(Oc2cc(I)c(O)c(I)c2)c(I)c1 , if possible.
Completion: 0.973

Prompt: Also NC(N)=O ?
Completion: 0.989

Prompt: Proceed to S=P(N1CC1)(N1CC1)N1CC1
Completion: 1.01

Prompt: Here is the next compound: N[C@@H](Cc1cc(I)c(Oc2cc(I)c(O)c(I)c2)c(I)c1)C(=O)O
Completion: 1.1

Prompt: Next entry: O=c1[nH]cnc2[nH]ncc12
Completion: 1.03

Prompt: Now the compound CCN(CCCc1ccccc1)CCCc1ccccc1
Completion: 1.04

Prompt: Next record, please: CC(=O)O[C@H]1CC[C@]2(C)C3C(=O)[C@@H](OC(C)=O)[C@@]4(C)C(C[C@@H]5O[C@]6(CCC(C)CO6)[C@@H](C)[C@@H]54)C3CC[C@H]2C1 (stereo partly specified)
Completion: 0.983

Prompt: Then CC(=O)O[C@H]1CC[C@]2(C)C3=CC(=O)[C@@]4(C)C(C[C@@H]5OC6(OCC(C)CC6Br)[C@@H](C)[C@@H]54)C3CC[C@H]2C1 (stereo partly specified) ?
Completion: 0.986

---

Test: chemical genetic growth profiling, strain panel (AID 1159580);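 note: tested at 20 µM; growth read once vehicle control cultures reached saturation at 30 °C; 1 = growth at the plate median or of vehicle wells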
Conditions: S. cerevisiae deletion strains, growth OD, locus YLR370C, strain arc18, hits give low values
Screen size: about 5,500 compounds; about 2,000 (36%) were called active. About 18% were inconclusive and are not listed. This is one part of the list.
Flag rule - normalized growth less than 1 flags rule met; the remaining entries get rule not met.

Prompt: Check if normalized growth falls below 1 for C=C1C(C2(C)C=CC(=O)C(C)(C)C2CC(=O)OC)CC[C@@]2(C)[C@H](c3ccoc3)OC(=O)C3OC132 (stereo not given in full) .
Completion: rule met

Prompt: And C=Cc1c(C)c2[n-]c1=Cc1[n-]c(c(CC)c1C)C=c1[n-]c3c(c1C)C(=O)C(C(=O)[O-])C=3c1[n-]c(c(C)c1CCC(=O)[O-])C=2.[Cu] (stereo not given) ?
Completion: rule not met

---

Assay: chemical genetic growth profiling, strain panel (AID 1159580);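 note: tested at 20 µM; growth read once vehicle control cultures reached saturation at 30 °C; 1 = growth at the plate median or of vehicle wells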
Conditions: S. cerevisiae deletion strains, growth OD, locus YLR262C, strain YPT6 (second series), hits give low values
About 2,000 (36%) of roughly 5,500 compounds were called active. Another 18% or so got no clear call; they are omitted. Some of the results follow.
Hi there, I'd appreciate the recorded normalized growth for every entry that follows.
// print number alone

Prompt: Bench note: what normalized growth did Cc1ncc([N+](=O)[O-])n1CC(C)O (stereo unspecified) show?
Completion: 0.981

Prompt: Now give it for COc1cc(C)c(C(=O)Oc2cc(C)c(C(=O)O)c(O)c2C)c(OC)c1C too.
Completion: 0.943

Prompt: Same for CN(C)C(=O)Nc1ccc(Cl)c(Cl)c1
Completion: 0.996

Prompt: Same thing, different molecule: NC(=O)c1ncn(C2O[C@H](CO)[C@@H](O)[C@H]2O)c1N (stereo partly specified)
Completion: 1.05

Prompt: Check CSc1ccc2c(c1)N(CCC1CCCCN1C)c1ccccc1S2 (stereo unspecified) too.
Completion: 1.1

Prompt: CCC(=O)Nc1ccc(Cl)c(Cl)c1 ?
Completion: 1
